# Experimental System: Aryl hydrocarbon receptor (Homo sapiens, UniProt P35869)
# Sequence (P35869 11-848): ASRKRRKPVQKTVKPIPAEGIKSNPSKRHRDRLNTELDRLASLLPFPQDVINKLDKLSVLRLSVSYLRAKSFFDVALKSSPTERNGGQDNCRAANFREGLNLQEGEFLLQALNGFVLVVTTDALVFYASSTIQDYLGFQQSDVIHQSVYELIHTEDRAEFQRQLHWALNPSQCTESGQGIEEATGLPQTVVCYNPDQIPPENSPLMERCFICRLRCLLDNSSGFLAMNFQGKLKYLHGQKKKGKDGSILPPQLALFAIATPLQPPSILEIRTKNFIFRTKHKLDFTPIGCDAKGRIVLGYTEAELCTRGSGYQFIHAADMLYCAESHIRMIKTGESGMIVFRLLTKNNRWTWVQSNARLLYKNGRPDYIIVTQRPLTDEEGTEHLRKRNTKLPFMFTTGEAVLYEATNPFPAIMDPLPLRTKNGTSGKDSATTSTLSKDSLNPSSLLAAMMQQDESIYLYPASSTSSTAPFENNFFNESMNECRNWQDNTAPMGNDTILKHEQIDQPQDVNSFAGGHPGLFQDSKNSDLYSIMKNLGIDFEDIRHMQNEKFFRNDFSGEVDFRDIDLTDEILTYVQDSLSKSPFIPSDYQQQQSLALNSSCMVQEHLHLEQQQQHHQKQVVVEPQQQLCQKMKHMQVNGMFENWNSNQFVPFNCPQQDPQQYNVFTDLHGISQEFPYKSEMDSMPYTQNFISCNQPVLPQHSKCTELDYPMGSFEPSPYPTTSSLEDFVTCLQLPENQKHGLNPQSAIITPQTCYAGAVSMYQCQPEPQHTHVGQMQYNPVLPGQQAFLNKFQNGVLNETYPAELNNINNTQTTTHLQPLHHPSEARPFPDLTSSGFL
# Test Details: Off‐target panel: Aryl hydrocarbon receptor
# Experimental Conditions: Activator, read-out: Mean (PXC50)
pEC50: −log10 of the molar value.
Property Name: pEC50

Query Smiles	Property Name	Reported
CCC[C@@H](NC(=O)c1cccc2c1CC(=O)N2)[C@@H](O)c1cccc(F)c1C	pEC50	< 4.00

// data source = paper PMC7933930
